Values were extracted from patent US8993756B2.

Assignment: determine reported IC50 for the given compounds.
# Assayed System: JAK2 (Homo sapiens (Human))
# Sequence (O60674 849-1124): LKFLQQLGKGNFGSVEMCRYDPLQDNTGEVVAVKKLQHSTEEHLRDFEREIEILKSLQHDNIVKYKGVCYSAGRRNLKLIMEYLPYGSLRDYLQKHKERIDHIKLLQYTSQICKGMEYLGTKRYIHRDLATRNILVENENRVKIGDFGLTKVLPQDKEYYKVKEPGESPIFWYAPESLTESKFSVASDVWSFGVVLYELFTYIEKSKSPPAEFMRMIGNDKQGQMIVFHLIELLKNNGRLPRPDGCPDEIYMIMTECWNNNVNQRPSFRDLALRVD
# Test: Jak Biochemical HTRF Assay (JAK2)
# Assay Conditions: recombinant GST-tagged catalytic domain, [ATP] 8.5 μM

Compound	Assay Result
C=C(C)C(=O)Nc1cccc(-c2ncnc3[nH]cc(-c4ccccc4F)c23)c1 [Example 20-3]	> 1.5 µM
CCOC(=O)c1c[nH]c2ncnc(-c3ccc(O)cc3)c12 [Example 1-35]	0.134 µM
CCOC(=O)c1c[nH]c2ncnc(-c3ccc(N(C)C)cc3)c12 [Example 1-47]	0.09 µM
C=C(F)C(=O)Nc1cc(-c2ncnc3[nH]cc(C(=O)OCC)c23)ccc1F [Example 5-10]	> 1.5 µM
C=C(C)C(=O)Nc1cc(F)cc(-c2ncnc3[nH]cc(C(=O)OCC)c23)c1 [Example 4-19]	> 1.5 µM

I'm hoping you can list IC50 for every compound here, please.
1. C=C(C)C(=O)Nc1cccc(-c2ncnc3[nH]cc(C(=O)OCC)c23)c1F [Example 4-2]
2. C=C(C)C(=O)Nc1cccc(-c2ncnc3[nH]cc(-c4cccc(F)c4)c23)c1 [Example 20-2]
3. C=C(C)C(=O)Nc1cc(-c2ncnc3[nH]cc(C(=O)OCC)c23)c[nH]c1=O [Example 4-33]

> 1.5 µM
> 1.5 µM
> 1.5 µM

---

Assignment: determine reported log10 IC50 for the given molecules.
# Assayed System: JAK3 (Homo sapiens (Human), UniProt P52333)
# Sequence (P52333 822-1111): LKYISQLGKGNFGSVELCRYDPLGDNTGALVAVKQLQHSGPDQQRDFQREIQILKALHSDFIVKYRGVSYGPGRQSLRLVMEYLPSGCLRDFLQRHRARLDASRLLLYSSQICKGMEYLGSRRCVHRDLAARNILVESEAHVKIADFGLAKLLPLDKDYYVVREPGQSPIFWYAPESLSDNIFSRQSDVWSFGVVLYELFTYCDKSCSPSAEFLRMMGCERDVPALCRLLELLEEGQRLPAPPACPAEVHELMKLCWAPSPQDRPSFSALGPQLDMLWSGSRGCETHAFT
# Test: Jak Biochemical HTRF Assay (JAK3)
# Assay Conditions: recombinant GST-tagged catalytic domain, [ATP] 2.9 μM
Each number you see is log10 of IC50, and the unit inside the log is pM.

Given Smiles	log10 IC50
C=C(C)C(=O)Nc1cc(-c2ncnc3[nH]cc(C(=O)OCC)c23)cc(OC)n1	1.69

I'm hoping you can list log10 IC50 for every molecule here, please.
1. C=C(C)C(=O)N1CCc2ccc(-c3ncnc4[nH]cc(C(=O)OCC)c34)cc21
2. CCOC(=O)c1c[nH]c2ncnc(-c3cccc(NC(=O)/C=C/c4ccccn4)c3)c12
3. C/C=C/C(=O)Nc1cccc(-c2ncnc3[nH]cc(C(=O)OCC)c23)c1
4. C=C(C)C(=O)Nc1cccc(-c2ncnc3[nH]cc(C(=O)OCC)c23)c1F
5. C=C(C)C(=O)Nc1cc(-c2ncnc3[nH]cc(C(=O)OCC)c23)ccc1CO
6. C=C(C)C(=O)Nc1cc(C#N)cc(-c2ncnc3[nH]cc(C(=O)OCC)c23)c1
7. C=CC(=O)Nc1cc(-c2ncnc3[nH]cc(C(=O)OCC)c23)ccc1Cl

[3.36, 3.82, 3.20, 3.60, 2.04, 1.83, 1.82]

---

# Assayed System: JAK2 (Homo sapiens (Human))
# Test: Jak Biochemical HTRF Assay (JAK2)
# Assay Conditions: recombinant GST-tagged catalytic domain, [ATP] 8.5 μM
Experimental Readout: IC50

Given Smiles	Assayed System	Assay Result
C=CC(=O)Nc1cccc(-c2ncnc3[nH]cc(-c4ccccc4)c23)c1	JAK2 (Homo sapiens (Human))	> 1500 nM

I'm hoping you can list IC50 for every compound here, please.
1. CCOC(=O)c1c[nH]c2ncnc(-c3ccc4ccccc4c3)c12
2. CCOC(=O)c1c[nH]c2ncnc(-c3cccc(NC(=O)/C=C/c4nccs4)c3)c12
3. C=C(C)C(=O)Nc1cc(-c2ncnc3[nH]cc(C(=O)OCC)c23)ccc1C(=O)N(C)C
4. CCOC(=O)c1c[nH]c2ncnc(-c3cccc(NC(=O)/C=C/CN(C)C)c3)c12
5. C=CS(=O)(=O)Nc1cccc(-c2ncnc3[nH]cc(C(=O)OCC)c23)c1
6. CCCOC(=O)c1c[nH]c2ncnc(-c3ccc4cn(C)nc4c3)c12
7. C=C(C)C(=O)Nc1cc(-c2ncnc3[nH]cc(C(=O)OCC)c23)ccc1OC
8. CCOC(=O)c1c[nH]c2ncnc(-c3ccc(N)cc3)c12

["186 nM", "496 nM", "> 1500 nM", "> 1500 nM", "> 1500 nM", "153 nM", "> 1500 nM", "53 nM"]

I'm hoping you can list IC50 for every compound here, please.
1. COc1ccccc1-c1c[nH]c2ncnc(-c3ccc4cn(C)nc4c3)c12
2. C=C(C)C(=O)Nc1cccc(-c2ncnc3[nH]cc(C4=CCOCC4)c23)c1
3. C=C(CO)C(=O)Nc1cccc(-c2ncnc3[nH]cc(C(=O)OCC)c23)c1
4. CCOC(=O)c1c[nH]c2ncnc(-c3cc4ccccc4s3)c12
5. C=CC(=O)Nc1cc(-c2ncnc3[nH]cc(C(=O)OCC)c23)ccc1Cl

1: > 1500 nM; 2: > 1500 nM; 3: > 1500 nM; 4: 54 nM; 5: > 1500 nM

I'm hoping you can list IC50 for every compound here, please.
1. CCOC(=O)c1c[nH]c2ncnc(-c3cccc(NC(=O)/C=C/c4ccncc4)c3)c12
2. C=C(C)C(=O)Nc1cc(-c2ncnc3[nH]cc(C(=O)OCC)c23)cnc1OC
3. C=C(C)C(=O)n1ccc2ccc(-c3ncnc4[nH]cc(C(=O)OCC)c34)cc21
4. C=CC(=O)N1CCc2ccc(-c3ncnc4[nH]cc(C(=O)OCC)c34)cc21
5. CCOC(=O)c1c[nH]c2ncnc(-c3ccccc3)c12
6. C=C(C)C(=O)Nc1cc(C)cc(-c2ncnc3[nH]cc(C(=O)OCC)c23)c1
7. C=C(CN(C)C)C(=O)Nc1cccc(-c2ncnc3[nH]cc(C(=O)OCC)c23)c1

1. > 1500 nM
2. > 1500 nM
3. > 1500 nM
4. > 1500 nM
5. 91 nM
6. > 1500 nM
7. > 1500 nM

I'm hoping you can list IC50 for every compound here, please.
1. CCOC(=O)c1c[nH]c2ncnc(-c3ccc(C)c(N)c3)c12
2. C=CC(=O)Nc1cccc(-c2ncnc3[nH]cc(C(=O)OCC)c23)c1C
3. C=C(C)C(=O)Nc1cccc(-c2ncnc3[nH]cc(-c4ncco4)c23)c1
4. C/C=C/S(=O)(=O)Nc1cccc(-c2ncnc3[nH]cc(C(=O)OCC)c23)c1
5. CCOC(=O)c1c[nH]c2ncnc(-c3cccc(NC(=O)C4=CC(=O)CC4)c3)c12

78 nM
> 1500 nM
> 1500 nM
> 1500 nM
> 1500 nM

I'm hoping you can list IC50 for every compound here, please.
1. C=C(C)C(=O)Nc1cc(-c2ncnc3[nH]cc(C(=O)OCC)c23)cn(C)c1=O
2. C=C(C)C(=O)Nc1cccc(-c2ncnc3[nH]cc(-c4cncs4)c23)c1
3. C=C(C)C(=O)Nc1cc(-c2ncnc3[nH]cc(C(=O)OCC)c23)ccc1C#N
4. C=C(C)C(=O)Nc1cncc(-c2ncnc3[nH]cc(C(=O)OCC)c23)c1

> 1500 nM
> 500 nM
> 1500 nM
> 1500 nM

I'm hoping you can list IC50 for every compound here, please.
1. CCOC(=O)c1c[nH]c2ncnc(-c3cccc(NC(=O)/C=C/c4ccccn4)c3)c12
2. CCOC(=O)c1c[nH]c2ncnc(-c3cccc(O)c3)c12

1. 452 nM
2. 127 nM

I'm hoping you can list IC50 for every compound here, please.
1. C=C(C)C(=O)Nc1cccc(-c2ncnc3[nH]cc(C4CCOCC4)c23)c1
2. CCOC(=O)c1c[nH]c2ncnc(-c3cccc(Nc4nc(Cl)ns4)c3)c12

1: > 1500 nM; 2: 109 nM
